What LC retention time was measured for each of the following?
Test: RP, Waters ACQUITY UPLC BEH C18, 38 °C, 0.24 mL/min; A: water + 0.1% formic acid, pH 3; B: acetonitrile + 0.1% formic acid, pH 3; gradient (min/%B) 0/0 0.25/0 0.4/9 0.8/17 1.9/100 2.1/100 2.11/0 3/0
Settings: stereoisomer not certain
Structures can show the parent of a compound that is named as a salt.
I only need the number, in min, no unit after it.

Entry CCCCCC1CCC(=O)O1 (stereo not drawn) [4-Nonanolide] needs its LC retention time filled in; supply it.
1.87

Entry COc1cc2c(cc1O)C1Cc3ccc(OC)c(O)c3CN1CC2 (stereo not drawn) needs its LC retention time filled in; supply it.
1.37

Entry O=c1c(O[C@@H]2O[C@H](CO)[C@@H](O)[C@H](O)[C@H]2O)c(-c2ccc(O[C@@H]3O[C@H](CO)[C@@H](O)[C@H](O)[C@H]3O)c(O)c2)oc2cc(O)cc(O)c12 [Quercetin-3,4'-O-di-beta-glucopyranoside] needs its LC retention time filled in; supply it.
1.32

Entry `O=c1c(-c2ccc(O)cc2)coc2cc(O)ccc12` needs its LC retention time filled in; supply it.
1.57

Entry O=c1[nH]cnc2c1ncn2C1CC(O)C(COP(=O)(O)O)O1 (stereo not drawn) [2'-Deoxyinosine-5'-monophosphate sodium salt] needs its LC retention time filled in; supply it.
0.7

Entry NC(CSS(=O)(=O)O)C(=O)O (stereo not drawn) needs its LC retention time filled in; supply it.
0.17

Entry CC(=O)NC(CC(C)C)C(=O)NC(CC(C)C)C(=O)NC(C=O)CCCN=C(N)N (stereo not drawn) [Leupeptin hemisulfate salt] needs its LC retention time filled in; supply it.
1.42

Entry O=C(O)[C@H](O)[C@@H](O)[C@H](O)[C@H](O)CO [D-Gluconic acid sodium salt] needs its LC retention time filled in; supply it.
0.17

* * *

Assay: RP, Waters ACQUITY UPLC BEH C18, 38 °C, 0.24 mL/min; A: water + 0.1% formic acid, pH 3; B: acetonitrile + 0.1% formic acid, pH 3; gradient (min/%B) 0/0 0.25/0 0.4/9 0.8/17 1.9/100 2.1/100 2.11/0 3/0
Conditions: stereoisomer not certain
What LC retention time was measured for each of the following?
I only need the number, in min, no unit after it.

Entry C[N+](C)(C)CC=O [Betaine aldehyde chloride] needs its LC retention time filled in; supply it.
0.16

Entry C=CC(C)(O)CCC=C(C)CCC=C(C)C (stereo not drawn) [cis-Nerolidol] needs its LC retention time filled in; supply it.
1.81

Entry `Cc1ncsc1CCO` needs its LC retention time filled in; supply it.
1.08

Entry C[N+](C)(C)CCO [Choline chloride] needs its LC retention time filled in; supply it.
0.17

Entry `C[C@H](N)C(=O)O` needs its LC retention time filled in; supply it.
0.17

Entry NC(=O)CCCCC1CCSS1 (racemic) [DL-Thioctamide] needs its LC retention time filled in; supply it.
1.57

Entry COc1cc(C=CC=O)ccc1O [4-Hydroxy-3-methoxycinnamaldehyde] needs its LC retention time filled in; supply it.
1.52

Entry `COc1cc(C=CC(=O)O)cc(OC)c1O` needs its LC retention time filled in; supply it.
1.44

Entry `O=C1CC[C@@H](C(=O)O)N1` needs its LC retention time filled in; supply it.
0.41

Entry `[NH3+]CCCCCC(=O)[O-]` needs its LC retention time filled in; supply it.
0.41

Entry `Nc1ccnc(=O)[nH]1` needs its LC retention time filled in; supply it.
0.19
